The measurements presented in this section are drawn from ChEMBL document CHEMBL3882729.

- MEASURED_ON: Vascular endothelial growth factor receptor 2 (Homo sapiens, UniProt P35968)
- Sequence (P35968 whole entry, the tested form may be a part): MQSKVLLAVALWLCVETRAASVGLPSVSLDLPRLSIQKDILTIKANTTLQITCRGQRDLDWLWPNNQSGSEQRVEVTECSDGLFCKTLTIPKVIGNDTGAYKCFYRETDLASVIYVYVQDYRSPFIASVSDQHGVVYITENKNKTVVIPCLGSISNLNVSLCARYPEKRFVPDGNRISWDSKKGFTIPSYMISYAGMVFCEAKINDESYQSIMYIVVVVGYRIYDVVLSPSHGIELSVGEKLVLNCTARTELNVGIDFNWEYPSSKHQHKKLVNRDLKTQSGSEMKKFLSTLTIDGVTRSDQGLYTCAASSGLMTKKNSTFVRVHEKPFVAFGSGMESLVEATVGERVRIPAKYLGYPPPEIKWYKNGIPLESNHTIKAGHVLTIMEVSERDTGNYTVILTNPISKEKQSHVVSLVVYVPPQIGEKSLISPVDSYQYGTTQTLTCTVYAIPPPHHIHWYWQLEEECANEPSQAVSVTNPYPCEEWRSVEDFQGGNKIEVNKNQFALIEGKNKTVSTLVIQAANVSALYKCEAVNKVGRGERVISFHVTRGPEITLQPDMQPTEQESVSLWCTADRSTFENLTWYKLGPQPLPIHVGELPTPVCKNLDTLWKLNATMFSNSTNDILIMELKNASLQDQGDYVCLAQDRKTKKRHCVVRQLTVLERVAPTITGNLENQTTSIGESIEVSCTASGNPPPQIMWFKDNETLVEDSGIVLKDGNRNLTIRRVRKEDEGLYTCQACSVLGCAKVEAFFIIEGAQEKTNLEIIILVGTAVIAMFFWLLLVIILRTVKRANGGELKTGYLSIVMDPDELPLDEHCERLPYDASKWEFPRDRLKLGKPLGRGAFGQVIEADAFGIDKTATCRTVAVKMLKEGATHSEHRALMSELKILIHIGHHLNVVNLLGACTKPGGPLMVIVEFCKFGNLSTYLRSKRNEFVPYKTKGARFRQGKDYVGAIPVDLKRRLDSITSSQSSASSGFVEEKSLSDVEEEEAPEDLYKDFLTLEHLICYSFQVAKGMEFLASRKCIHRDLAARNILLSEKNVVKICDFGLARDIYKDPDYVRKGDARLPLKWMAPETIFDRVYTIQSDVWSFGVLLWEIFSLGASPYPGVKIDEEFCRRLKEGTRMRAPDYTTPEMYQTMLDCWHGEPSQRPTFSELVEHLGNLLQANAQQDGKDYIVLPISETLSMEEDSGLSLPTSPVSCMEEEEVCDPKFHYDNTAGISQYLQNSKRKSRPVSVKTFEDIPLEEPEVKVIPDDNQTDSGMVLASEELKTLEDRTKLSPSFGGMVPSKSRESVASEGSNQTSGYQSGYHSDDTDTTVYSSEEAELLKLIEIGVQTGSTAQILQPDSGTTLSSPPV
- ASSAY_PROTOCOL: Inhibition of recombinant human N-terminal GST-fused KDR (D807 to V1356 residues) expressed in baculovirus infected […] insect Sf9 cells using poly-EY as substrate after 240 mins by luciferase coupled chemiluminescence assay
pIC50: −log10 of the molar value.
// reported pIC50 for each item listed

Solved cases (5 shown):
# COMPOUND, pIC50
data = [
    ("COC(=O)CCCCN1CCOC(COc2cc3ncnc(Nc4ccc(Cl)c(Cl)c4)c3cc2OC)C1 (stereo unspecified)", "6.00 to 7.30"),
    ("COc1cc2c(Nc3cc(Cl)c(Br)cc3F)ncnc2cc1OC[C@H]1CN2CCOC[C@H]2CO1", "6.00 to 7.30"),
    ("COc1cc2c(Nc3ccc(Cl)c(Cl)c3F)ncnc2cc1OC[C@@H]1CN2CCC[C@H]2C(=O)N1C", "6.00 to 7.30"),
    ("COc1cc2c(Nc3ccc(F)c(Cl)c3)ncnc2cc1OCC1CN(C)CCO1 (stereo unspecified)", "6.00 to 7.30"),
    ("COc1cc2c(Nc3cc(Cl)c(Cl)cc3F)ncnc2cc1OC[C@@H]1CN2CCOC[C@H]2CO1", "6.00 to 7.30"),
]

Field: next compound
Query: Tell us which pIC50 value is on record for COc1cc2c(Nc3cc(Cl)c(Br)cc3F)ncnc2cc1OC[C@@H]1CN2CCOC[C@H]2CO1
Response: 6.00 to 7.30

* * *

- MEASURED_ON: Vascular endothelial growth factor receptor 2 (Homo sapiens)
- ASSAY_PROTOCOL: Inhibition of recombinant human N-terminal GST-fused KDR (D807 to V1356 residues) expressed in baculovirus infected […] insect Sf9 cells using poly-EY as substrate after 240 mins by luciferase coupled chemiluminescence assay
Entries and their IC50

# COMPOUND, MEASURED_ON, ASSAY_METRIC, MEASURED_RESULT
rows = [
    ("COc1cc2c(Nc3ccc(Cl)c(Cl)c3F)ncnc2cc1OCC1CN(C)C(C)(C)CO1 (configuration not stated)", "Vascular endothelial growth factor receptor 2 (Homo sapiens)", "IC50", "< 50 nM"),
    ("COc1cc2c(Nc3ccc(Cl)c(Cl)c3F)ncnc2cc1OC[C@@H]1CN(C)CC(=O)N1C", "Vascular endothelial growth factor receptor 2 (Homo sapiens)", "IC50", "50 to 1000 nM"),
    ("COc1cc2c(Nc3ccc(Cl)c(Cl)c3)ncnc2cc1OCC1CN(C(=O)c2cccc3ccccc23)CCO1 (configuration not stated)", "Vascular endothelial growth factor receptor 2 (Homo sapiens)", "IC50", "50 to 1000 nM"),
    ("COc1cc2c(Nc3cc(Cl)c(Cl)cc3F)ncnc2cc1OCC1CN(C)CCO1 (configuration not stated)", "Vascular endothelial growth factor receptor 2 (Homo sapiens)", "IC50", "50 to 1000 nM"),
    ("CCCCCN1CCOC(COc2cc3ncnc(Nc4ccc(Cl)c(Cl)c4)c3cc2OC)C1 (configuration not stated)", "Vascular endothelial growth factor receptor 2 (Homo sapiens)", "IC50", "50 to 1000 nM"),
]

Query: Give IC50; test system Vascular endothelial growth factor receptor 2 (Homo sapiens); compound COc1cc2c(Nc3ccc(N4CCN(C)CC4)c(Cl)c3Cl)ncnc2cc1O[C@H]1CO[C@H]2[C@@H]1OC[C@@H]2F
Response: 1000 to 20000 nM

Query: Report measured IC50 on Vascular endothelial growth factor receptor 2 (Homo sapiens); entry: COc1cc2c(Nc3ccc(Cl)c(Br)c3)ncnc2cc1OCC1CN(C)CCO1 (configuration not stated)
Response: 50 to 1000 nM

Query: Provide IC50, tested on Vascular endothelial growth factor receptor 2 (Homo sapiens), for COc1cc2c(Nc3ccc(Cl)c(Cl)c3N3CCN(C)CC3)ncnc2cc1O[C@H]1CO[C@H]2[C@@H]1OC[C@@H]2F .
Response: 1000 to 20000 nM
